Tested on: Vero E6 infected with SARS-CoV-2
assay-notes: morphology score (similarity to uninfected cells); higher = more like uninfected cells
applied-conditions: 24 h
Listing of entries alongside the reported morphology score.
measure-name: morphology score

[[record]]
molecule = "CC1CC(OC(=O)C(O)c2ccccc2)CC(C)(C)N1C (stereo unspecified) [eucatropine] (10 µM)"
measured_target = "Vero E6 infected with SARS-CoV-2"
measured_result = -0.104

[[record]]
molecule = "C[C@@H](O)[C@H]1C(=O)N2C(C(=O)O)=C(S[C@@H]3CN[C@H](C(=O)N(C)C)C3)[C@H](C)[C@H]12 [meropenem] (10 µM)"
measured_target = "Vero E6 infected with SARS-CoV-2"
measured_result = 0.0366

[[record]]
molecule = "CC(C)(C)NC(=O)N[C@H](C(=O)N1C[C@H]2[C@@H]([C@H]1C(=O)NC(CC1CCC1)C(=O)C(N)=O)C2(C)C)C(C)(C)C (stereo partly specified) [boceprevir] (10 µM)"
measured_target = "Vero E6 infected with SARS-CoV-2"
measured_result = 0.133

[[record]]
molecule = "COC(=O)[C@H](CC(C)C)NC(=O)[C@@H](N)CC(C)C [leucylleucine-methyl-ester] (10 µM)"
measured_target = "Vero E6 infected with SARS-CoV-2"
measured_result = 0.113

[[record]]
molecule = "COc1cc2c(Oc3ccc4[nH]c(C)cc4c3F)ccnc2cc1OCC1(N)CC1 [anlotinib] (10 µM)"
measured_target = "Vero E6 infected with SARS-CoV-2"
measured_result = -0.207

[[record]]
molecule = "C[C@@H]1CCCN1CCc1cc2cc(-c3ccc(C#N)cc3)ccc2o1 (10 µM)"
measured_target = "Vero E6 infected with SARS-CoV-2"
measured_result = 0.44

[[record]]
molecule = "CC(C)(S)C(N)C(=O)O (stereo in doubt) [penicillamine-(racemic)] (10 µM)"
measured_target = "Vero E6 infected with SARS-CoV-2"
measured_result = 0.0971

[[record]]
molecule = "O=C(CO)[C@@H](O)[C@@H](O)[C@H](O)CO [tagatose] (10 µM)"
measured_target = "Vero E6 infected with SARS-CoV-2"
measured_result = -0.0178

[[record]]
molecule = "CC(C)(C)Cn1c(N)nc2ccc(-c3[nH]c(C(C)(C)C)nc3-c3ccc(F)cc3)nc21 (10 µM)"
measured_target = "Vero E6 infected with SARS-CoV-2"
measured_result = -0.205

[[record]]
molecule = "CC1CCc2cc(F)cc3c(=O)c(C(=O)O)cn1c23 (stereo unspecified) [flumequine] (10 µM)"
measured_target = "Vero E6 infected with SARS-CoV-2"
measured_result = -0.154

[[record]]
molecule = "CCN(CC)CCOC(=O)C(c1ccccc1)c1ccccc1 [adiphenine] (10 µM)"
measured_target = "Vero E6 infected with SARS-CoV-2"
measured_result = -0.106

[[record]]
molecule = "CCc1ccc(Cc2ccc3c(c2)[C@]2(OC3)O[C@H](CO)[C@@H](O)[C@H](O)[C@H]2O)cc1 [tofogliflozin] (10 µM)"
measured_target = "Vero E6 infected with SARS-CoV-2"
measured_result = 0.023

[[record]]
molecule = "COC(=O)c1cc(OC)c2c(c1-c1c(C(=O)OC)cc(OC)c3c1OCO3)OCO2 [bifendate] (10 µM)"
measured_target = "Vero E6 infected with SARS-CoV-2"
measured_result = 0.0714

[[record]]
molecule = "C=C1/C(=C\\C=C2/CCC[C@]3(C)[C@@H]([C@H](C)/C=C/[C@H](C)C(C)(C)O)CC[C@@H]23)C[C@@H](O)C[C@@H]1O [ercalcitriol] (10 µM)"
measured_target = "Vero E6 infected with SARS-CoV-2"
measured_result = 0.0324

[[record]]
molecule = "CC#CC(=O)N1CC[C@@H](n2c(=O)n(-c3ccc(Oc4ccccc4)cc3)c3c(N)ncnc32)C1 (0.833333 µM)"
measured_target = "Vero E6 infected with SARS-CoV-2"
measured_result = -0.0591

[[record]]
molecule = "Nc1ncnc2[nH]nc(Nc3ccc(F)cc3)c12 (0.833333 µM)"
measured_target = "Vero E6 infected with SARS-CoV-2"
measured_result = -0.00281

